Origin of measurements: ChEMBL document CHEMBL1155219

assay: in vivo; settings: Han Wistar, rat, po, 5 umol/kg
Description: Oral bioavailability in Han Wistar rat at 5 umol/kg
value_kind: bioavailability (%)
Express it in %; write the number only.

State its bioavailability for this compound: Cc1ccc(Oc2ccnc(Nc3ccc(S(N)(=O)=O)cc3)c2)c(C)n1
75

State its bioavailability for this compound: COc1cc(Nc2cc(Oc3ccc(C)nc3C)ccn2)cc(OC)c1OC
21

State its bioavailability for this compound: COc1cc(Nc2cc(Oc3cc(C)c(C)nc3-c3ccccn3)ccn2)cc(OC)c1OC
4

State its bioavailability for this compound: Cc1cc(Oc2ccnc(Nc3ccc(S(N)(=O)=O)cc3)c2)c(-c2ccccn2)nc1C
20

====

assay: Octanol-phosphate buffered saline partition coefficient, log D at pH 7.4; details: octanol/water
value_kind: logD
Answer field: number only, no words.

State its logD for this compound: COc1cc(Nc2cc(Oc3ccc(C)nc3)ccn2)cc(OC)c1OC
3.2

State its logD for this compound: Cc1ccc(Oc2ccnc(Nc3ccc(S(N)(=O)=O)cc3)c2)c(C)n1
2.5

State its logD for this compound: COc1ccccc1Nc1cc(Oc2cc(C)c(C)nc2-c2ccccn2)ccn1
3.4

====

test: Clearance in Han Wistar rat at 5 umol/kg, po; settings: in vivo, iv
value_kind: clearance (mL/min/kg)
Express it in mL/min/kg; write the number only.

State its clearance for this molecule: Cc1ccc(Oc2ccnc(Nc3ccc(S(N)(=O)=O)cc3)c2)c(C)n1
12

====

target: TGF-beta receptor type-1 (Homo sapiens); assay: Inhibition of 6His-tagged human ALK5 expressed in baculovirus-infected SF21 cells after 30 mins by fluorescence polarization assay
Sequence (P36897 whole entry): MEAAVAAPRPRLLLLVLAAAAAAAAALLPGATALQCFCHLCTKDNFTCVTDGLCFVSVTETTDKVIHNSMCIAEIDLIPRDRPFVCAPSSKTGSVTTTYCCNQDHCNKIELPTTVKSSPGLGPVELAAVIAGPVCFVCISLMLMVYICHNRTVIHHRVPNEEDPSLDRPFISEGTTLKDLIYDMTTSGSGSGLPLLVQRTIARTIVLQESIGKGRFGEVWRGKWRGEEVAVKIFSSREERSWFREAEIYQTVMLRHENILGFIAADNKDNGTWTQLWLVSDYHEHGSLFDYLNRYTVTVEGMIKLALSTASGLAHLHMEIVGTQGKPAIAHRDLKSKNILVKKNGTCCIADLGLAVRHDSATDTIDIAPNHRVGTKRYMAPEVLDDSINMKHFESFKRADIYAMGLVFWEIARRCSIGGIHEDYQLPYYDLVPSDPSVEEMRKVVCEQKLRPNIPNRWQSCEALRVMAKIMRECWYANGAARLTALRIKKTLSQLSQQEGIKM
Would you mind telling me the reported IC50 of each entry?
Express it in nM; write the number only.

State its IC50 for this compound: COc1cc(Nc2cc(Oc3cccnc3)ccn2)cc(OC)c1OC
227

State its IC50 for this compound: COc1cc(Nc2cc(Oc3cccnc3C)ccn2)cc(OC)c1OC
107

State its IC50 for this compound: COc1ccccc1Nc1cc(Oc2cc(C)c(C)nc2-c2ccccn2)ccn1
7

State its IC50 for this compound: COc1cc(Nc2cc(Oc3ccc(C)nc3)ccn2)cc(OC)c1OC
108

State its IC50 for this compound: Cc1cc(Oc2ccnc(Nc3ccc(F)cc3)c2)c(-c2ccccn2)nc1C
129

State its IC50 for this compound: COc1cc(Nc2cc(Oc3ccc(C)nc3-c3ccccn3)ccn2)cc(OC)c1OC
13

State its IC50 for this compound: Cc1cc(Oc2ccnc(Nc3ccc(S(N)(=O)=O)cc3)c2)c(-c2ccccn2)nc1C
21

State its IC50 for this compound: Cc1cc(Oc2ccnc(Nc3ccc(C(=O)N(C)C)cc3)c2)c(-c2ccccn2)nc1C
12

====

assay: Octanol-phosphate buffered saline partition coefficient, log D at pH 7.4; settings: octanol/phosphate buffered saline
Would you mind telling me the reported logD of each entry?
Answer field: number only, no words.

State its logD for this compound: Cc1cc(Oc2ccnc(Nc3ccc(N4CCOCC4)cc3)c2)c(-c2ccccn2)nc1C
2.6

State its logD for this compound: COc1cc(Nc2cc(Oc3ccc(C)nc3C)ccn2)cc(OC)c1OC
3

State its logD for this compound: COc1cc(Nc2cc(Oc3ccc(C)nc3-c3ccccn3)ccn2)cc(OC)c1OC
3.4

State its logD for this compound: Cc1cc(Oc2ccnc(Nc3ccc(C(=O)N(C)C)cc3)c2)c(-c2ccccn2)nc1C
3.4

State its logD for this compound: Cc1cc(Oc2ccnc(Nc3ccc(S(N)(=O)=O)cc3)c2)c(-c2ccccn2)nc1C
2.3

State its logD for this compound: Cc1cc(Oc2ccnc(Nc3cccc(N4CCOCC4)c3)c2)c(-c2ccccn2)nc1C
3.3

State its logD for this compound: Cc1cc(Oc2ccnc(Nc3ccccc3N3CCOCC3)c2)c(-c2ccccn2)nc1C
3.1

State its logD for this compound: Cc1cc(Oc2ccnc(Nc3ccc(F)cc3)c2)c(-c2ccccn2)nc1C
3.2

State its logD for this compound: COc1cc(Nc2cc(Oc3cccnc3)ccn2)cc(OC)c1OC
2.7

====

biological target: TGF-beta receptor type-1 (Homo sapiens); type: cell-based, MDA-MB-468
Description: Inhibition of ALK5 in human MDA-MB-468 cells assessed as inhibition of nuclear translocation of GFP-2/Smad2 fusion reporter gene after 90 mins by Hoechst 3342 staining-based cellomics arrayscan imaging analysis
Rule: IC50 below 60 nM gives criterion met, anything at or above gives criterion not met.

IC50 under 60 nM? Item: Cc1cc(Oc2ccnc(Nc3ccc(S(N)(=O)=O)cc3)c2)c(-c2ccccn2)nc1C
criterion met

IC50 under 60 nM? Item: COc1cc(Nc2cc(Oc3cccnc3)ccn2)cc(OC)c1OC
criterion not met

IC50 under 60 nM? Item: COc1cc(Nc2cc(Oc3cccnc3C)ccn2)cc(OC)c1OC
criterion not met

IC50 under 60 nM? Item: Cc1cc(Oc2ccnc(Nc3ccc(F)cc3)c2)c(-c2ccccn2)nc1C
criterion not met

IC50 under 60 nM? Item: COc1cc(Nc2cc(Oc3ccc(C)nc3)ccn2)cc(OC)c1OC
criterion not met

IC50 under 60 nM? Item: COc1cc(Nc2cc(Oc3ccc(C)nc3-c3ccccn3)ccn2)cc(OC)c1OC
criterion met

IC50 under 60 nM? Item: COc1ccccc1Nc1cc(Oc2cc(C)c(C)nc2-c2ccccn2)ccn1
criterion not met

IC50 under 60 nM? Item: Cc1cc(Oc2ccnc(Nc3ccc(C(=O)N(C)C)cc3)c2)c(-c2ccccn2)nc1C
criterion met

IC50 under 60 nM? Item: COc1cc(Nc2cc(Oc3ccc(C)nc3C)ccn2)cc(OC)c1OC
criterion met
